So I've got a bunch of molecules here, and I need their TGI values.
- Test system: OVCAR-8 ovarian
- ASSAY: NCI tumour cell line growth inhibition, 48 h

Worked examples follow.
| MOLECULE | ASSAYED_TARGET | TGI |
| --- | --- | --- |
| CC(C)(C)[Si](C)(C)OCC1OC(n2cnc3c(NC(=O)c4ccccc4)ncnc32)CC1O (configuration not stated) | OVCAR-8 ovarian | > 100 µM |
| O=c1oc2ccccc2c(O)c1C(c1ccco1)c1c(O)c2ccccc2oc1=O | OVCAR-8 ovarian | 82 µM |

Return reported TGI values for all items listed beneath this line.
1. O=C(CC(=O)N1N=C(N2CCCCC2)CC1c1ccccc1)Nc1ccc(Cl)cc1 (configuration not stated)
2. ClC1=C(Cl)C(Cl)=C(Cl)C1=C/C=C/c1ccccc1
3. CN1C2(c3ccccc3)c3c(-c4ccccc4)sc(-c4ccccc4)c3C1(c1ccccc1)C1C(=O)N(c3ccccc3)C(=O)C12 (configuration not stated)
4. CN(C)c1ccc(/C=C(/NC(=O)c2ccccc2)c2nc3ccc(Cl)cc3[nH]2)cc1
5. CC1(C)CC(=O)C2=C(C1)c1c(ccc3ccccc13)NC2c1cn(Cc2ccc(Cl)cc2)c2ccccc12 (configuration not stated)
6. O=C(NNC(=S)Nc1ccccc1)c1ccccc1Nc1ccccc1C(=O)NNC(=S)Nc1ccccc1
7. CC1(C)N=C(C(N)=O)c2ncn(-c3ccccc3)c2N1
8. C=C/C=C(\NC(=O)C(Cl)(Cl)Cl)[Si](C)(C)C

Response:
["> 100 µM", "1.92 µM", "> 100 µM", "> 100 µM", "> 100 µM", "52.2 µM", "> 100 µM", "> 100 µM"]
